This section presents substances with their documented MIC Eco 25922 values.
# Test system: E. coli
# Procedure Details: Minimal inhibitory concentration (MIC) assay, broth microdilution
# Format: cell-based, Escherichia coli
# Stated Conditions: E. coli 25922

# Substance, MIC Eco 25922 [mg/L]
measured = [
    ("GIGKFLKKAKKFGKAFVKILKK [peptide 109]", 4),
    ("(MAL)-(EG3)-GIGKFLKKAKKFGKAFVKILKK [peptide 21]", 8),
    ("GGGGSGGGGSGIGKFLKKAKKFGKAFVKILKK [peptide 23]", 8),
    ("GLRKRLRKFRNKIKEKLKKIGQKIQGLLPKLA [Peptide 33]", 8),
    ("GAFGNFLKGVAKKAGLKILSIAQCKLFGTC [peptide 70]", 4),
]
